The reported measurements were obtained from ChEMBL document CHEMBL2016464.

Below, each of the molecules is paired with its reported pIC50 value.
experiment: cells; settings: Homo sapiens, HEK-293T, 14 h
Description: Inhibition of TNFalpha-induced NFkappaB activation in HEK293T cells after 14 hrs by luciferase reporter gene assay
Just the number, please; pIC50 means minus log10 of the concentration in mol/L.

molecule | pIC50
COc1ccc(NC(=O)c2ccc(CN3CCc4ccccc4C3)cc2)cc1 | 6.19
CC(=O)c1ccc(N2CCN(S(=O)(=O)c3ccc4c(c3)CC(C)N4C(C)=O)CC2)cc1 (racemic) | 5.22
CCOc1ccc(NC(=O)c2ccc(CN3CCc4ccccc4C3)cc2)cc1 | 5.69

Exercise: Consider the molecule shown here: COc1ccc(N2CCN(S(=O)(=O)c3ccc4c(c3)CC(C)N4C(=O)C3CC3)CC2)cc1 (racemic) What is its recorded pIC50?
Solution: 5.41

###

// reported pIC50 for each item listed
biological target: Nucleotide-binding oligomerization domain-containing protein 2 (Homo sapiens)
Sequence (Q9HC29 whole entry, the tested form may be a part): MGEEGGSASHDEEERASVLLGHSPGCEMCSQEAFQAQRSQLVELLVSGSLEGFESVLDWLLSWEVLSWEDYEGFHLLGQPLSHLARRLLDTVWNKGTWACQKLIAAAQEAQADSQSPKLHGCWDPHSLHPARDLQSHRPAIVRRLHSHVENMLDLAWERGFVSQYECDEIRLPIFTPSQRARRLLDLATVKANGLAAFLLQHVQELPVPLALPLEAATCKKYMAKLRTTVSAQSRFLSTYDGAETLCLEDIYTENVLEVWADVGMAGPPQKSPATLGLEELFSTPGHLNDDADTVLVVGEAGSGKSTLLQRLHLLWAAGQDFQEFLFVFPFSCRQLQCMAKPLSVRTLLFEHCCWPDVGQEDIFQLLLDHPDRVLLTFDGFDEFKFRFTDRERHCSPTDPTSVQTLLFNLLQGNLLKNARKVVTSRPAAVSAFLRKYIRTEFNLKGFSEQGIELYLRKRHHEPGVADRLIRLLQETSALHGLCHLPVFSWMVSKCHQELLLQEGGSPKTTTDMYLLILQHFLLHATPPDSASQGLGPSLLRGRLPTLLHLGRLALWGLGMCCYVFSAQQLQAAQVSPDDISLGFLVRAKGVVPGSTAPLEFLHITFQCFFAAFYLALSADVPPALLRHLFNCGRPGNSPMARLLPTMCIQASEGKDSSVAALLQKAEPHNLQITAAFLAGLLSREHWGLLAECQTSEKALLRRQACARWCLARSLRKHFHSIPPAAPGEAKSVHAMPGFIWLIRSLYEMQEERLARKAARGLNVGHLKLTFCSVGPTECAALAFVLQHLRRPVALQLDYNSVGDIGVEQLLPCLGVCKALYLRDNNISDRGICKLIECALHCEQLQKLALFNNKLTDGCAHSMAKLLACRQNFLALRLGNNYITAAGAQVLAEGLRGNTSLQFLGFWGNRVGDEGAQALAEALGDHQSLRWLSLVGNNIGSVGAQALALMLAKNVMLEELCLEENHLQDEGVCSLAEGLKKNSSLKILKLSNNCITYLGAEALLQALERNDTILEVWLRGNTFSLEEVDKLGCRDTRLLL
// scale note: pIC50 = -log10(conc_M); give the bare number

Worked set:
compound | value-observed
CC1Cc2cc(S(=O)(=O)N3CCN(c4ccc(Cl)cc4)CC3)ccc2N1C(=O)C1CC1 (racemic) | 5.44
O=C(Nc1ccc(OC(F)(F)F)cc1)c1ccc(CN2CCc3ccccc3C2)cc1 | 7.52
O=C(Nc1ccc(Cl)cc1)c1ccc(CN2CCc3ccccc3C2)cc1 | 5.45
CC(=O)c1ccc(N2CCN(S(=O)(=O)c3ccc4c(c3)CC(C)N4C(=O)C3CC3)CC2)cc1 (racemic) | 5.10
CCOC(=O)c1ccc(NC(=O)c2ccc(CN3CCc4ccccc4C3)cc2)cc1 | 6.40

Let us examine a further case.
Exercise: Give Nucleotide-binding oligomerization domain-containing protein 2 (Homo sapiens) pIC50 for COc1ccc(N2CCN(S(=O)(=O)c3ccc4c(c3)CC(C)N4C(C)=O)CC2)cc1 (racemic)
Solution: 5.48

###

experiment: Plasma protein binding in human at 1 uM after 4 hrs; format: ADME, cell-free; settings: read-out: PPB (converted)
experimental-endpoint: fraction unbound at 4 h, 1 µM

Exercise: Request the reported fraction unbound at 4 h, 1 µM associated with Cc1ccc(S(=O)(=O)n2c(N)nc3ccccc32)cc1
Solution: 0.025

###

assay: Cytotoxicity against human Fa2N-4 cells after 24 hrs by ATP-lite assay; assay type: cell-based; conditions: read-out: LD50
experimental-endpoint: CC50 at 24 h

Exercise: Given Cc1ccc(S(=O)(=O)n2c(N)nc3ccccc32)cc1 , state its recorded CC50 at 24 h.
Solution: > 50 µM

###

// reported IC50 for each item listed
experiment: cells; conditions: Homo sapiens, HEK-293T, 14 h
Write the value in µM as a bare number.

Here is how some molecules turned out for IC50.
molecule | unit-annotation | IC50
CC(=O)N1c2ccc(S(=O)(=O)N3CCN(c4ccc(Cl)cc4)CC3)cc2CC1C (racemic) | µM | 5.76
CSc1ccc(NC(=O)c2ccc(CN3CCc4ccccc4C3)cc2)cc1 | µM | 0.37
CCC(=O)N1c2ccc(S(=O)(=O)N3CCN(c4ccc(Cl)cc4)CC3)cc2CC1C (racemic) | µM | 0.58

Next molecule, please.
Exercise: Entry O=C(Nc1ccc(OC(F)(F)F)cc1)c1ccc(CN2CCc3ccccc3C2)cc1 : reported IC50 = ?
Solution: 0.03

###

# Lookup of reported pIC50 keyed by entry
experiment: cells; conditions: Homo sapiens, HEK-293T, 14 h
FYI, pIC50 means -log10 of a concentration in mol per litre.

Field: example entries. Status: answers known.
structure-smiles-string | pIC50
O=C(Nc1ccc(Br)cc1)c1ccc(CN2CCc3ccccc3C2)cc1 | 5.82
CN(C)c1ccc(NC(=O)c2ccc(CN3CCc4ccccc4C3)cc2)cc1 | 5.74
O=C(Nc1ccc(Cl)cc1)c1ccc(CN2CCc3ccccc3C2)cc1 | 6.31

Next compound, please.
Exercise: I would be grateful if you could share the reported pIC50 for CCOC(=O)c1ccc(NC(=O)c2ccc(CCN3CCc4ccccc4C3)cc2)cc1 .
Solution: 4.97
